Data credit: patent US10160762B2

Target: human PDE2A1 (Homo sapiens)
Construct: GST; purchased BPS Bioscience (San Diego, Calif.) 60020; host or cells: insect cells
Sequence (O00408 1-920 isoform O00408-2): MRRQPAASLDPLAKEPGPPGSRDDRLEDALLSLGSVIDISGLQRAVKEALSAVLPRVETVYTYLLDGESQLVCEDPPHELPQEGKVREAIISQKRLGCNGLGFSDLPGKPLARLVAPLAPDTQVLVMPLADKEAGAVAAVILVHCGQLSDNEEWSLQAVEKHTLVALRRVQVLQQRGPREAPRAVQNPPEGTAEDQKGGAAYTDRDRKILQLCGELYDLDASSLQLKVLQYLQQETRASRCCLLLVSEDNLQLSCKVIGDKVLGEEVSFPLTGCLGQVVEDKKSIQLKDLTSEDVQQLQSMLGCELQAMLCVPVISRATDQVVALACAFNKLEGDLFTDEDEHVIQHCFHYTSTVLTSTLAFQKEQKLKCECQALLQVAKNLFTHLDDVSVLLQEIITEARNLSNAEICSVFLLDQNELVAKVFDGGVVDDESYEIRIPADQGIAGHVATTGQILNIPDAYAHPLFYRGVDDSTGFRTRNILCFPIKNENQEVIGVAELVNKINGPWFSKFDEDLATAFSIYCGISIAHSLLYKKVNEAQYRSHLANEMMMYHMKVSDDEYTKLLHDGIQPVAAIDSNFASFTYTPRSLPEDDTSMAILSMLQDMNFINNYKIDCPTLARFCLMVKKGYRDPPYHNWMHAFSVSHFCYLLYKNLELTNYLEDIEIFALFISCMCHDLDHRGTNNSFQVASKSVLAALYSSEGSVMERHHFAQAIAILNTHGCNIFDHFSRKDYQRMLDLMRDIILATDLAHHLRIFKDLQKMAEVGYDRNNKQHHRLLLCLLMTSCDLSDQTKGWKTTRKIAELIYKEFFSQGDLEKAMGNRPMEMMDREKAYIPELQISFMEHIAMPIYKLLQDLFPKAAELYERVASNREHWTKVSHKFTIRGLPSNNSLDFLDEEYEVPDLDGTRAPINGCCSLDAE
Assay: IMAP FP PDE assay, human PDE2A1
Assay type: biochemical
Conditions: Lab B; read-out: Human PDE2 Ki (nM) Lab B
Parameter Measured: Ki (nM)

[
  {
    "Compound": "Cc1nc2c(c(CO)nn2C2CCc3cc(C(F)(F)F)ccc32)c(=O)[nH]1 (single isomer, unassigned) [Example 103]",
    "Target": "human PDE2A1 (Homo sapiens)",
    "Value Units": "nM",
    "Ki": 19
  },
  {
    "Compound": "Cc1nc2c(c(C(F)(F)F)nn2C(C)c2ccc(C(F)(F)F)cc2)c(=O)[nH]1 (single isomer, unassigned) [Example 69]",
    "Target": "human PDE2A1 (Homo sapiens)",
    "Value Units": "nM",
    "Ki": 713
  },
  {
    "Compound": "Cc1nc2c(c(CF)nn2C(c2ccc(OC(F)(F)F)c(F)c2)C2CC2)c(=O)[nH]1 (single isomer, unassigned) [Example 228]",
    "Target": "human PDE2A1 (Homo sapiens)",
    "Value Units": "nM",
    "Ki": 0.42
  },
  {
    "Compound": "COCc1nc2c(c(CO)nn2C(C)c2ccc(S(F)(F)(F)(F)F)cc2)c(=O)[nH]1 (single isomer, unassigned) [Example 318]",
    "Target": "human PDE2A1 (Homo sapiens)",
    "Value Units": "nM",
    "Ki": 3.8
  },
  {
    "Compound": "COCC(c1ccc(C(F)(F)F)cc1)n1nc(C(F)F)c2c(=O)[nH]c(C)nc21 (single isomer, unassigned) [Example 173]",
    "Target": "human PDE2A1 (Homo sapiens)",
    "Value Units": "nM",
    "Ki": 4.6
  },
  {
    "Compound": "CCC(c1ccc(C(F)(F)F)cc1)n1nc(CO)c2c(=O)[nH]c(C)nc21 (single isomer, unassigned) [Example 133]",
    "Target": "human PDE2A1 (Homo sapiens)",
    "Value Units": "nM",
    "Ki": 66
  },
  {
    "Compound": "Cc1nc2c(c(C(F)F)nn2C(C)c2ccc(C(F)(F)F)cc2)c(=O)[nH]1 (stereo not drawn) [Example 166]",
    "Target": "human PDE2A1 (Homo sapiens)",
    "Value Units": "nM",
    "Ki": 9.5
  },
  {
    "Compound": "Cc1nc2c(c(CF)nn2C(C)c2ccc(CC(F)(F)F)cc2)c(=O)[nH]1 (single isomer, unassigned) [Example 210]",
    "Target": "human PDE2A1 (Homo sapiens)",
    "Value Units": "nM",
    "Ki": 75
  },
  {
    "Compound": "CCC(c1ccc(C(F)(F)F)cc1)n1nc(CO)c2c(=O)[nH]c(C)nc21 (single isomer, unassigned) [Example 132]",
    "Target": "human PDE2A1 (Homo sapiens)",
    "Value Units": "nM",
    "Ki": 1.1
  },
  {
    "Compound": "Cc1nc2c(c(CO)nn2C(c2ccc(C(C)(C)C)cc2)C2CC2)c(=O)[nH]1 (single isomer, unassigned) [Example 89]",
    "Target": "human PDE2A1 (Homo sapiens)",
    "Value Units": "nM",
    "Ki": 0.33
  }
]

(P) Cc1nc2c(c(CO)nn2C(C)[C@H]2CC[C@H](C(F)(F)F)CC2)c(=O)[nH]1 (single isomer, unassigned) [Example 125]
(Q) Cc1nc2c(c(C3CCCO3)nn2C(C)c2ccc(C(F)(F)F)cc2)c(=O)[nH]1 (single isomer, unassigned) [Example 70]
Could you tell me which of these two has the smaller Ki figure? First: P Second: Q API: response body contains the label of the selected item.
P
(P: 26 nM, Q: 159 nM)
